Data provenance: the supplement of paper PMC13380429

Tested on: HepG2
Assay Comment: cell viability relative to DMSO; higher = less toxic
Assay Setup: 72 h; 1 nM
Assay Readout: cell viability (%)

Compound: COc1cc2ncnc(Nc3ccc(Cl)cc3F)c2cc1OC
Reported Measurement: 99.1
--
Compound: C=C1C(=O)O[C@@H]2[C@H]3C(C)=CC[C@@]34O[C@@]4(C)CC[C@@H]12
Reported Measurement: 96.1
--
Compound: CCOc1ccn(-c2ccc(F)cc2)c(=O)c1C(=O)Nc1ccc(Oc2ccnc(N)c2Cl)c(F)c1
Reported Measurement: 110
--
Compound: Cc1noc(C)c1-c1cc(O)cc([C@@H](O)c2ccccc2)c1
Reported Measurement: 107
--
Compound: Nc1ncc(Cc2ccc(Br)cc2)s1
Reported Measurement: 98
--
Compound: C=CC(=O)Nc1ccc2ncnc(Nc3ccc(OCc4cccc(F)c4)c(Cl)c3)c2c1
Reported Measurement: 102
--
Compound: O=C(Nc1ccc(Cl)nc1)c1ccc(Cl)cc1
Reported Measurement: 97.5
--
Compound: O=c1ccc2ccccc2o1
Reported Measurement: 91.8
--
Compound: COC(=O)C1=C(C)NC(C)=C(C(=O)OC(C)C)[C@@H]1c1cccc2nonc12
Reported Measurement: 98.9
--
Compound: CN1C(=O)C(Cc2c[nH]c3ccccc23)NC1=S (stereo not given)
Reported Measurement: 110

###

System: Calu-3
Assay Comment: cell viability relative to DMSO; higher = less toxic
Assay Setup: 72 h; 1000 nM
Assay Readout: cell viability (%)

Compound: CC(C)(C(=O)NCC(F)(F)C(F)(F)F)C(=O)N[C@@H]1C(=O)Nc2ccccc2-c2ccccc21 [RG4733]
Assay Target: Calu-3
Assay Readout: cell viability
Quantity Unit: %
Reported Measurement: 98.6
--
Compound: O=C(O)c1ccc(-c2ccc3cc(O)c(C45CC6CC(CC(C6)C4)C5)cc3c2)cc1 [CD-1530]
Assay Target: Calu-3
Assay Readout: cell viability
Quantity Unit: %
Reported Measurement: 98.5
--
Compound: CCCCNC(=O)NS(=O)(=O)c1ccc(C)cc1 [tolbutamide]
Assay Target: Calu-3
Assay Readout: cell viability
Quantity Unit: %
Reported Measurement: 107
--
Compound: CCOC(=O)[C@@H](N)Cc1ccc(-c2cc(O[C@H](c3ccc(Cl)cc3-n3ccc(C)n3)C(F)(F)F)nc(N)n2)cc1 [telotristat-ethyl]
Assay Target: Calu-3
Assay Readout: cell viability
Quantity Unit: %
Reported Measurement: 91.1
--
Compound: O=S(=O)(N[C@H](CO)C(C(F)(F)F)C(F)(F)F)c1ccc(Cl)s1 [begacestat]
Assay Target: Calu-3
Assay Readout: cell viability
Quantity Unit: %
Reported Measurement: 104
--
Compound: CCOc1cc(OCC)c(C(=O)CCC(=O)O)cc1OCC [trepibutone]
Assay Target: Calu-3
Assay Readout: cell viability
Quantity Unit: %
Reported Measurement: 102
--
Compound: CC(=O)Nc1cccc(O)c1 [metacetamol]
Assay Target: Calu-3
Assay Readout: cell viability
Quantity Unit: %
Reported Measurement: 99.8
--
Compound: CC(=O)Oc1ccccc1C(=O)Nc1ncc([N+](=O)[O-])s1 [nitazoxanide]
Assay Target: Calu-3
Assay Readout: cell viability
Quantity Unit: %
Reported Measurement: 99.1
--
Compound: OC(CCCN1CCN(c2ncc(F)cn2)CC1)c1ccc(F)cc1 (configuration not stated)
Assay Target: Calu-3
Assay Readout: cell viability
Quantity Unit: %
Reported Measurement: 104
--
Compound: Cc1cc(C(C#N)c2ccc(Cl)cc2)c(Cl)cc1NC(=O)c1cc(I)cc(I)c1O (configuration not stated) [closantel]
Assay Target: Calu-3
Assay Readout: cell viability
Quantity Unit: %
Reported Measurement: 92.4
--
Compound: O=C(/C=C/C=C/c1ccc2c(c1)OCO2)N1CCCCC1 [piperine]
Assay Target: Calu-3
Assay Readout: cell viability
Quantity Unit: %
Reported Measurement: 106
--
Compound: NS(=O)(=O)c1ccc(NC(=O)Nc2ccc(F)cc2)cc1 [U-104]
Assay Target: Calu-3
Assay Readout: cell viability
Quantity Unit: %
Reported Measurement: 101
--
Compound: CN1CCN(c2cccc3[nH]c(=O)oc23)CC1 [pardoprunox]
Assay Target: Calu-3
Assay Readout: cell viability
Quantity Unit: %
Reported Measurement: 107
--
Compound: O=C(NCCCN1CCCCCC1)C(c1ccccc1)C1CCCCC1 (configuration not stated)
Assay Target: Calu-3
Assay Readout: cell viability
Quantity Unit: %
Reported Measurement: 104
--
Compound: COc1c(C)cnc(Cn2cnc3c(Cl)nc(N)nc32)c1C [BIIB021]
Assay Target: Calu-3
Assay Readout: cell viability
Quantity Unit: %
Reported Measurement: 49.4
--
Compound: C[C@H](N[C@@H](CCc1ccccc1)C(=O)O)C(=O)N1CCC[C@H]1C(=O)O [enalaprilat]
Assay Target: Calu-3
Assay Readout: cell viability
Quantity Unit: %
Reported Measurement: 89
--
Compound: CCC(=O)O[C@H]1[C@H](O[C@@H]2[C@@H](C)[C@H](O[C@H]3C[C@@](C)(OC)[C@@H](O)[C@H](C)O3)[C@@H](C)C(=O)O[C@H](CC)[C@@](C)(O)[C@H](O)[C@@H](C)C(=O)[C@H](C)C[C@@]2(C)O)O[C@H](C)C[C@@H]1N(C)C [erythromycin-estolate]
Assay Target: Calu-3
Assay Readout: cell viability
Quantity Unit: %
Reported Measurement: 88.6
